This section presents compounds with their documented relative viability values.
- Test system: NCI-H1395
- assay_info: relative viability (nuclei count vs DMSO), 5 days (fraction); higher = more cells survive
- conditions_used: first compound 0.03162 µM
Enter a number only.

Use these answered entries as a reference point.
>>> recorded_number("Cc1cn(-c2cc(NC(=O)c3ccc(C)c(Nc4nccc(-c5cccnc5)n4)c3)cc(C(F)(F)F)c2)cn1 [Nilotinib] + O=C(c1cc(Cc2n[nH]c(=O)c3ccccc23)ccc1F)N1CCN(C(=O)C2CC2)CC1 [Olaparib] (partner 8 µM)")
0.493
>>> recorded_number("Cc1cn(-c2cc(NC(=O)c3ccc(C)c(Nc4nccc(-c5cccnc5)n4)c3)cc(C(F)(F)F)c2)cn1 [Nilotinib] + NC(=O)Nc1cc(-c2cccc(F)c2)sc1C(=O)N[C@H]1CCCNC1 [AZD7762] (partner 0.2 µM)")
0.361
>>> recorded_number("Cc1cn(-c2cc(NC(=O)c3ccc(C)c(Nc4nccc(-c5cccnc5)n4)c3)cc(C(F)(F)F)c2)cn1 [Nilotinib] + CS(=O)(=O)N1CCN(Cc2cc3nc(-c4cccc5[nH]ncc45)nc(N4CCOCC4)c3s2)CC1 [Pictilisib] (partner 1 µM)")
0.552
>>> recorded_number("Cc1cn(-c2cc(NC(=O)c3ccc(C)c(Nc4nccc(-c5cccnc5)n4)c3)cc(C(F)(F)F)c2)cn1 [Nilotinib] + N=C(N)NC(=N)NCCc1ccccc1 [Phenformin] (partner 250 µM)")
0.43

// below: relative viability requested for another compound
Entry Cc1cn(-c2cc(NC(=O)c3ccc(C)c(Nc4nccc(-c5cccnc5)n4)c3)cc(C(F)(F)F)c2)cn1 [Nilotinib] + COc1cc2c(Oc3ccc(NC(=O)C4(C(=O)Nc5ccc(F)cc5)CC4)cc3F)ccnc2cc1OCCCN1CCOCC1 [Foretinib] (partner 0.25 µM) : relative viability on NCI-H1395 = 0.853

----------
This section presents compounds with their documented relative viability values.
- System: NCI-H1915
- assay_info: relative viability (nuclei count vs DMSO), 5 days (fraction); higher = more cells survive
- conditions_used: first compound 0.002 µM
Enter a number only.

>>> recorded_number("CCNC(=O)c1noc(-c2cc(C(C)C)c(O)cc2O)c1-c1ccc(CN2CCOCC2)cc1 [Luminespib] + COc1cccc2cc(-c3nc([C@H]4CC[C@H](C(=O)O)CC4)n4ncnc(N)c34)[nH]c12 [OSI-027] (partner 0.5 µM)")
0.596
>>> recorded_number("CCNC(=O)c1noc(-c2cc(C(C)C)c(O)cc2O)c1-c1ccc(CN2CCOCC2)cc1 [Luminespib] + CC1(C)CCC(c2ccc(Cl)cc2)=C(CN2CCN(c3ccc(C(=O)NS(=O)(=O)c4ccc(N[C@H](CCN5CCOCC5)CSc5ccccc5)c(S(=O)(=O)C(F)(F)F)c4)cc3)CC2)C1 [Navitoclax] (partner 0.5 µM)")
0.8
>>> recorded_number("CCNC(=O)c1noc(-c2cc(C(C)C)c(O)cc2O)c1-c1ccc(CN2CCOCC2)cc1 [Luminespib] + NC(=O)Nc1cc(-c2cccc(F)c2)sc1C(=O)N[C@H]1CCCNC1 [AZD7762] (partner 0.2 µM)")
0.662

// below: relative viability requested for another compound
Briefly, relative viability measured for CCNC(=O)c1noc(-c2cc(C(C)C)c(O)cc2O)c1-c1ccc(CN2CCOCC2)cc1 [Luminespib] + Cc1nc(Nc2ncc(C(=O)Nc3c(C)cccc3Cl)s2)cc(N2CCN(CCO)CC2)n1 [Dasatinib] (partner 0.075 µM) : 0.311
